Assay: cytotoxicity in HPDE-C7 cells, cell-based, fluorescence, HTS (AID 430);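 note: cells exposed to compound for 48 hours before viability readout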
Details: HPDE-C7 pancreatic duct cells viability, at 10 µM
In all, about 63,000 compounds went through this assay and about 1,100 (1.7%) were called active. Cut-off read from the data, not from the text of the source: active = cytotoxicity above about 50%; inactive = the rest. The full list was thinned out, with actives kept by preference. Entries with a potency or affinity are not part of this list.
Outcomes: Yes = active, No = inactive

{"molecule": "COc1ccccc1-n1cnc2cc(NC(C)=O)ccc21", "class.name": "No"}
{"molecule": "COc1cccc(C2=NOC(C(=O)NCc3ccccn3)C2)c1 (stereo not drawn)", "class.name": "No"}
{"molecule": "CCCN1CC23C=CC(O2)C(C(=O)O)C3C1=O (stereo not drawn)", "class.name": "No"}
{"molecule": "Cn1c(CCCOc2ccc(Cl)cc2Cl)nnc1SCC(=O)Nc1nccs1", "class.name": "No"}
{"molecule": "COc1ccc(CNC(=O)C2CC(c3cccc(OC)c3)=NO2)cc1 (stereo not drawn)", "class.name": "No"}
{"molecule": "COc1cc(NS(=O)(=O)c2ccc(OC)c(C)c2C)c(OC)cc1Cl", "class.name": "Yes"}
{"molecule": "COCCNC(=O)C1CC(c2cccc(OC)c2)=NO1 (stereo not drawn)", "class.name": "No"}
{"molecule": "CCC(=O)Nc1ccc2c(c1)ncn2-c1ccccc1OC", "class.name": "No"}
{"molecule": "CCOC(=O)N1CCN(c2ccc(C(=O)c3ccccc3)cc2F)CC1", "class.name": "No"}
{"molecule": "COc1ccc(-c2cc(C(=O)N3CCN(c4ccccn4)CC3)c3ccccc3n2)cc1", "class.name": "No"}
{"molecule": "O=C(Nc1ccc(F)cc1)N1CCN(C/C=C/c2ccccc2)CC1", "class.name": "No"}
{"molecule": "Cn1nnc(NC(=O)c2ccc(C(C)(C)C)cc2)n1", "class.name": "No"}
{"molecule": "CC1C(=O)CCC1(C(=O)O)c1ccccc1 (stereo not drawn)", "class.name": "No"}
{"molecule": "Cc1ccc(-c2noc(CSc3nc(N)cc(N)n3)n2)cc1", "class.name": "No"}
{"molecule": "COc1cccc(C2=NOC(C(=O)NCc3ccc(F)cc3)C2)c1 (stereo not drawn)", "class.name": "Yes"}
{"molecule": "Cc1ccc2nc(-c3ccccn3)cc(C(=O)N3CCN(c4ncccn4)CC3)c2c1", "class.name": "No"}
{"molecule": "COc1cccc(C2=NOC(C(=O)NCc3ccccc3)C2)c1 (stereo not drawn)", "class.name": "Yes"}
{"molecule": "COc1cccc(C2=NOC(C(=O)NCc3ccco3)C2)c1 (stereo not drawn)", "class.name": "No"}
{"molecule": "Cc1c(NC(=O)c2ccc(=O)oc2)c(=O)n(-c2ccccc2)n1C", "class.name": "No"}
{"molecule": "COc1cc(-c2cc(C(=O)N3CCN(c4ccccn4)CC3)c3ccccc3n2)cc(OC)c1OC", "class.name": "No"}
{"molecule": "C(=C\\c1ccccc1)/CN1CCN(C(c2ccccc2)c2ccccc2)CC1", "class.name": "No"}
{"molecule": "COc1cc(NS(=O)(=O)c2cc(C)ccc2OC)c(OC)cc1Cl", "class.name": "No"}
{"molecule": "COc1ccc(OC)c(S(=O)(=O)Nc2cc(OC)c(Cl)cc2OC)c1", "class.name": "No"}

Source of measurements: PubChem BioAssay AID430
